target: T1, HLA-DRB1*0802 (human); assay: inhibition of 125I probe peptide binding to purified HLA-DR, gel filtration; conditions: remark: other sources report otherwise
T1 chain 1: not shown
T1 chain 2: not shown
PARAMETER MEASURED: IC50 (nM)

BINDER: LLNWCMQIAKGMSYL [Her2/neu.822]
RECORDED MEASUREMENT: 120
